# test-protocol: Primary qHTS to identify inhibitors of SARS-CoV-2 cell entry (AID 1645846); further: nearly all actives have a fitted effect of over 45% in size; further: potency means the concentration at half of the fitted maximal effect
# recorded-conditions: SARS-CoV-2 pseudovirus cell entry assay, luminescence
Inconclusive results are not listed. Active and inactive are the calls of the source. The call rests on the fitted dose curve.
measurement-name: Potency

Here are 4 compounds together with their reported answers.
- compound: "CC(/C=C1\\SC(=S)N(CC(=O)O)C1=O)=C\\c1ccccc1"
  Potency: "inactive"
- compound: "Cc1cn(CCN2CCN(c3ccccc3-c3cc(C#N)cc(C(=O)NCCCN4CCCC4)c3)CC2)c2ccccc12"
  Potency: "17.8 µM (active)"
- compound: "CCc1cc(/C(C)=N/OCc2ccc(C3CCCCC3)c(C(F)(F)F)c2)ccc1CN1CC(C(=O)O)C1"
  Potency: "inactive"
- compound: "CCCCc1nc2cc(/C=C/C(=O)NO)ccc2n1CCN(CC)CC"
  Potency: "inactive"

Could you now consider this next compound?
Asked: Look up and state reported Potency for CC(C)(C)NCC(O)c1ccc(O)c(CO)n1 (stereo not given)
Given back: inactive

----------
# tested-system: Rap guanine nucleotide exchange factor 4 (Homo sapiens)
# test-protocol: Confirmatory qHTS for antagonist of cAMP-regulated guanine nucleotide exchange factor 4 (EPAC2) (AID 1645885); further: nearly all actives have a fitted effect of over 25% in size; on activity change, negative = inhibition: on the % scale 0 is the no-effect control and ±100 the full control effect
# recorded-conditions: EPAC2 Rap1B-BODIPY-GDP exchange fluorescence, biochemical; series mostly up to 114 µM
Results filed as inconclusive are left out. The source made the active and inactive calls. Calls come from the whole dose curve; as a rule, active = well fitted inhibition curve with a large enough effect; inconclusive = small, poorly fitted or top-dose-only effect; inactive = no such curve, though single readings can be large or run the other way.
measurement-name: activity change, negative = inhibition

- molecule: "COP(=O)(/C=C(\\Cl)c1ccccc1)/C=C(\\Cl)c1ccccc1"
  result: "inactive"
- molecule: "Cc1ccc(N2C(=O)NC(=O)/C(=C\\C=C\\c3ccco3)C2=O)cc1C"
  result: "inactive"
- molecule: "Cc1cccc(CN2C(=O)CN=C(c3ccccc3)c3ccccc32)c1"
  result: "15.3% [at 12.7 µM] (inactive)"
- molecule: "Nc1c2c(nc3sc4c(c13)CCCC4)CCCC2"
  result: "-3.15% [at 12.7 µM] (inactive)"

Asked: Look up and state reported activity change, negative = inhibition for `COc1ccccc1-n1c(-c2cccs2)nc2ccccc2c1=O`
Given back: inactive

Asked: Look up and state reported activity change, negative = inhibition for `COc1cccc(N2C(=O)NC(=O)/C(=C\c3cn(C)c4ccccc34)C2=O)c1`
Given back: inactive

----------
# test-protocol: Primary qHTS to identify inhibitors of SARS-CoV-2 cell entry (AID 1645846); further: nearly all actives have a fitted effect of over 45% in size; further: potency means the concentration at half of the fitted maximal effect
# recorded-conditions: SARS-CoV-2 pseudovirus cell entry assay, luminescence
Inconclusive results are not listed. The source made the active and inactive calls. Calls come from the whole dose curve. Square brackets hold non-standard residues; d marks the D form. Peptide text beside a SMILES is read from it. * marks the point of attachment. Benzoyl(4-tBu) = CC(C)(C)c1ccc(C(=O)*)cc1; Lys(Et2) = CCN(CC)CCCC[C@H](N)C(=O)O
measurement-name: Potency

Here are 5 compounds together with their reported answers.
- compound: "CC(C)C[C@H]1C(=O)N2CCC[C@H]2[C@]2(O)O[C@](NC(=O)[C@@H]3C=C4c5cccc6[nH]c(Br)c(c56)CC4N(C)C3)(C(C)C)C(=O)N12 (stereo partly drawn)"
  Potency: "22.4 µM (active)"
- compound: "CC1(C)[C@H](C=C(Cl)Cl)[C@@H]1C(=O)OCc1c(F)c(F)cc(F)c1F"
  Potency: "inactive"
- compound: "CNC(C)CC1CCCC1 (stereo not drawn)"
  Potency: "inactive"
- compound: "O=C(NO)c1cnc(N2C[C@H]3C[C@@H]2CN3c2cc(C(F)(F)F)ccn2)nc1"
  Potency: "inactive"
- compound: "CCNC(=O)Nc1ccc(-c2nc3c(c(N4CCOC[C@@H]4C)n2)CCN(C2COC2)C3)cc1"
  Potency: "10 µM (active)"

Asked: Look up and state reported Potency for `CCN1CCN(Cc2ccc(NC(=O)c3ccc(C)c(/C=C/c4cnc5[nH]ccc5c4OC)c3)cc2C(F)(F)F)CC1`
Given back: 10 µM (active)

Asked: Look up and state reported Potency for `C/C=C1\NC(=O)[C@H]2CSSCC/C=C\[C@H](CC(=O)N[C@H](C(C)C)C(=O)N2)OC(=O)[C@H](C(C)C)NC1=O`
Given back: 7.08 µM (active)

Asked: Look up and state reported Potency for `O=C(/C=C\n1cnc(-c2cc(C(F)(F)F)cc(C(F)(F)F)c2)n1)NNc1cnccn1`
Given back: 2.82 µM (active)

Asked: Look up and state reported Potency for `CN(C)CC/C=C1\c2ccccc2CSc2ccccc21`
Given back: 20 µM (active)

Asked: Look up and state reported Potency for `CSCC[C@H](N)C(=O)O`
Given back: inactive

Asked: Look up and state reported Potency for CCN(CC)CCCC[C@H](NC(=O)[C@H](CC(C)C)NC(=O)[C@H](C)NC(=O)[C@H](Cc1ccccc1)NC(=O)c1ccc(C(C)(C)C)cc1)C(=O)N[C@@H](CO)C(=O)OC ({Benzoyl(4-tBu)}-FAL[Lys(Et2)]S-OMe)
Given back: inactive

Asked: Look up and state reported Potency for `CC[C@H]1OC(=O)[C@H](C)[C@@H](O[C@H]2C[C@@](C)(OC)[C@@H](O)[C@H](C)O2)[C@H](C)[C@@H](O[C@@H]2O[C@H](C)C[C@H](N(C)C)[C@H]2O)[C@](C)(O)C[C@@H](C)CN(C)[C@H](C)[C@@H](O)[C@]1(C)O`
Given back: 12.6 µM (active)

Asked: Look up and state reported Potency for `C(=C\c1ccncc1)/c1ccccc1`
Given back: inactive

----------
# tested-system: Rap guanine nucleotide exchange factor 3 (Homo sapiens)
# test-protocol: Confirmatory qHTS for antagonist of cAMP-regulated guanine nucleotide exchange factor 3 (EPAC1) (AID 1645880); further: nearly all actives have a fitted effect of over 55% in size
# recorded-conditions: EPAC1 Rap1B-BODIPY-GDP exchange, fluorescence; series mostly up to 115 µM
Results filed as inconclusive are left out. The source made the active and inactive calls. The call rests on the fitted dose curve; in most records, active means well fitted inhibition curve with a large enough effect; inconclusive means small, poorly fitted or top-dose-only effect; inactive means no such curve, though single readings can be large or run the other way.
Form entry, call: pick from active, inactive

Asked: Per the records of this test, what outcome belongs to `Cc1ccccc1OCC(=O)N1CCN(CCc2ccccn2)CC1` ?
Given back: inactive

Asked: Per the records of this test, what outcome belongs to COC1C(OC(=O)c2ccc(C)[nH]2)C(O)C(Oc2ccc3c(O)c(NC(=O)c4ccc(O)c(CC=C(C)C)c4)c(=O)oc3c2Cl)OC1(C)C (stereo unspecified) ?
Given back: active

Asked: Per the records of this test, what outcome belongs to `CCCCC/C=C\C/C=C\C/C=C\C/C=C\CCCC(=O)Nc1ccc(O)cc1` ?
Given back: inactive

Asked: Per the records of this test, what outcome belongs to CCCCCC1C(=O)O[C@H](C)[C@@H](NC(=O)c2cccc(NC=O)c2O)C(=O)OC(C)C1OC(=O)CC(C)C (stereo partly specified) ?
Given back: inactive

Asked: Per the records of this test, what outcome belongs to `CCOC(=O)[C@]12Cc3ccccc3[C@H]1N(Cc1ccccc1)C(=O)c1cc(OC)ccc12` ?
Given back: inactive

Asked: Per the records of this test, what outcome belongs to `COC(=O)C1=C(c2ccc3ccccc3c2)C[C@@H]2CC[C@H]1N2C(=O)NC1CC1` ?
Given back: inactive

----------
# test-protocol: Primary qHTS for Huh7 cytotoxicity: counterscreen for inhibitors of MERS-S pseudotyped particle cell entry (AID 1479147)
# recorded-conditions: cell viability read-out; series mostly up to 57.1 µM
Records with an inconclusive call do not appear. Activity calls are given as the source filed them. The call rests on the fitted dose curve.
Form entry, call: pick from active, inactive

Asked: Per the records of this test, what outcome belongs to `CN1CCN(CCCN2c3ccccc3Sc3ccccc32)CC1` ?
Given back: active

Asked: Per the records of this test, what outcome belongs to `CNC[C@@H]1CC[C@@H](N)[C@@H](O[C@H]2[C@H](O)[C@@H](O[C@H]3OC[C@](C)(O)[C@H](NC)[C@H]3O)[C@H](N)C[C@@H]2N)O1` ?
Given back: inactive

Asked: Per the records of this test, what outcome belongs to `OC[C@H]1O[C@H](O[C@H]2[C@H](O)[C@@H](O)[C@H](O)O[C@@H]2CO)[C@H](O)[C@@H](O)[C@@H]1O` ?
Given back: inactive

----------
# test-protocol: Primary qHTS to identify inhibitors of SARS-CoV-2 cell entry (AID 1645846); further: nearly all actives have a fitted effect of over 45% in size
# recorded-conditions: SARS-CoV-2 pseudovirus cell entry assay, luminescence; at 57.1 µM (top of the series) unless noted
Inconclusive results are not listed.
Task for the reader: assign each of the following molecules its reported activity change, negative = inhibition.
Field format: number, assumed %, no unit text.

Asked: Look up and state reported activity change, negative = inhibition for `CC(=O)O[C@]1(C(C)=O)CC[C@H]2[C@@H]3C=C(C)C4=CC(=O)CC[C@@H]4[C@H]3CC[C@@]21C`
Given back: -20

Asked: Look up and state reported activity change, negative = inhibition for `NC(=O)c1ccc[n+]([C@@H]2O[C@H](COP(=O)([O-])OP(=O)(O)OC[C@H]3O[C@@H](n4cnc5c(N)ncnc54)[C@H](O)[C@@H]3O)[C@@H](O)[C@H]2O)c1`
Given back: -19.8
